# TEST_METHOD_NOTES: P. aeruginosa biofilm formation inhibitors, primary screen, strain PAO1, LB-PBS medium, absorbance 600 nm (AID 1176); also: test concentration not given here
# MEASUREMENT_SETUP: P. aeruginosa PAO1 growth/biofilm, A600, 12 h; higher = more signal
MEASUREMENT_KIND: z-score

[[record]]
compound = "COC(=O)[C@H](C)NC(=O)CCC1CC(OC(=O)NCc2ccc3c(c2)OCO3)CC2(CCCC(COC(=O)NCCOc3ccccc3)O2)O1 (stereo partly specified)"
value_measured = 0.875

[[record]]
compound = "Cc1cc2c(nc1C)CCCN2CC(O)CN1CCN(C)CC1 (stereo unspecified)"
value_measured = 1.02

[[record]]
compound = "CO[C@H]1O[C@H](CO)[C@@H](OC(=O)Nc2ccc(C#N)cc2)[C@H](OC(=O)c2cc3ccccc3[nH]2)[C@H]1OC(=O)c1cc2ccccc2[nH]1"
value_measured = 1.63

[[record]]
compound = "CC(C)CN1CCc2nc(-c3ccccc3)c3c(c2CC1)CO[C@@H](C)C3"
value_measured = -0.458

[[record]]
compound = "CN(C)CCCNC(=O)[C@@H]1c2ccccc2C(=O)N(Cc2cc(F)cc(C(F)(F)F)c2)[C@H]1c1ccc(CO)cc1"
value_measured = 0.348

[[record]]
compound = "O=C1O[C@@H](c2ccccc2)[C@@H](c2ccccc2)N2[C@@H](c3ccc(O)cc3)[C@]3(C(=O)Nc4ccccc43)[C@@H](C(=O)O)[C@H]12"
value_measured = 0.697

[[record]]
compound = "CO[C@H]1COC(=O)[C@@H]2CCCN2C(=O)CC=C[C@@H](C)[C@H](OC)COC(=O)CC=C[C@@H]1C"
value_measured = 0.696

[[record]]
compound = "CC(C)CON=C1C[C@@H](O)[C@@H](O)[C@@H]2[C@@H]3C(=O)N(C[C@@H]4CCCO4)C(=O)[C@@H]3CC[C@H]12"
value_measured = 0.884

[[record]]
compound = "O=C1[C@H]2[C@H]3[C@H](O)[C@H](O)CC(=NO[C@@H]4O[C@H](CO)[C@@H](O)[C@H](O)[C@H]4O)[C@H]3CC[C@H]2C(=O)N1Cc1ccc2c(c1)OCO2"
value_measured = -0.249

[[record]]
compound = "COC(=O)[C@@]1(Cc2ccc(F)cc2)[C@H]2c3cc(C(=O)N(C)C)n(Cc4ccc(OC)c(OC)c4)c3C[C@H]2CN1C(=O)c1ccccc1"
value_measured = 3.14

[[record]]
compound = "CN1C(=O)C2C=CC(C(O)C(c3ccccc3)c3ccccc3)N(NC(=O)OC(C)(C)C)C2C1=O (stereo unspecified)"
value_measured = 0.791

[[record]]
compound = "C=COC[C@H]1CN2[C@@H](CC[C@@H](C)[C@@H]2c2ccc(Br)cc2)C(=O)O1"
value_measured = 0.523

[[record]]
compound = "COc1ccc(-c2ccc3c(n2)CCCN3CC(O)CN2CCCc3nc(C)c(C)cc32)cc1 (stereo unspecified)"
value_measured = 0.274

[[record]]
compound = "CN(C)CCCNC(=O)[C@@H]1c2ccccc2C(=O)N(Cc2ccccc2)[C@H]1c1ccc(CO)cc1"
value_measured = -0.233

[[record]]
compound = "COC(=O)[C@H](C)NC(=O)[C@@H](C)CO"
value_measured = -0.351

[[record]]
compound = "C[C@@H]1C=CCC(=O)OC[C@H](C)C(=O)N2CCC[C@H]2C(=O)OC1"
value_measured = -0.549


Attribution: PubChem BioAssay
